- experimentalTarget: UniProtKB A5K4U6
- Sequence (A5K4U6 1-375): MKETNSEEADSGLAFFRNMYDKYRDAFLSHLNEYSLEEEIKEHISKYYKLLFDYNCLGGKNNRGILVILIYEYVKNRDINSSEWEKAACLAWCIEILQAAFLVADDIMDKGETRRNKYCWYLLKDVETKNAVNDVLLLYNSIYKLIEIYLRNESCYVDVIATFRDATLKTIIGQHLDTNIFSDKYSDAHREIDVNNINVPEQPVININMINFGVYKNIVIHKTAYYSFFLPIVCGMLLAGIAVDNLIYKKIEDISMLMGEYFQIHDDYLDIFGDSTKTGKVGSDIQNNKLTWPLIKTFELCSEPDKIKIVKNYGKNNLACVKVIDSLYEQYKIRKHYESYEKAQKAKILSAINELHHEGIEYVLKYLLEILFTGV
- measurementNotes: P. vivax FPPS inhibition, continuous spectrophotometric phosphate release assay
- Assay type: biochemical
- conditions: pIC50 (enzyme)
propertyLabel: IC50 (nM)

INSERT INTO assay_data (smilestext, readoutunits, testvalue) VALUES
  ('O=P(O)(O)C(O)(Cc1ccccn1)P(=O)(O)O', 'nM', 1000);

====

pIC50 values by entry
- experimentalTarget: P. vivax FPPS (farnesyl diphosphate synthase) (Plasmodium vivax, UniProt A5K4U6)
- Sequence (A5K4U6 1-375): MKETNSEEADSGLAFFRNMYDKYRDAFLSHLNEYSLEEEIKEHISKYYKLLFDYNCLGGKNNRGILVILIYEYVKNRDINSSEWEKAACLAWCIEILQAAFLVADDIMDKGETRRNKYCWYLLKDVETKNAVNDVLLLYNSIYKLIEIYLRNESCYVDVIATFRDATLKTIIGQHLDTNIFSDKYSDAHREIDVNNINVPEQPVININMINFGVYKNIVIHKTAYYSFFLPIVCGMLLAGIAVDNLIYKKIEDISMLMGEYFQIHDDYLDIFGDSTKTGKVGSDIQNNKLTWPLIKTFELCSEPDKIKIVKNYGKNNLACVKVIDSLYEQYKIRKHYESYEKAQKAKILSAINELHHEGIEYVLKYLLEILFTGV
- measurementNotes: P. vivax FPPS inhibition, continuous spectrophotometric phosphate release assay
- Format: biochemical
- conditions: pIC50 (enzyme), FPPS from Plasmodium vivax; pIC50 = −log10 IC50
pIC50: −log10 of the molar value.
propertyLabel: pIC50

INSERT INTO measurements (molecule, testvalue) VALUES
  ('CN(Cc1ccccc1)C(P(=O)(O)O)P(=O)(O)O [Compound 24]', 6.10),
  ('O=P(O)(O)C(O)(Cc1cccc(C(F)(F)F)c1)P(=O)(O)O [Compound 5]', 6.20),
  ('O=P(O)(O)C(Nc1nccs1)P(=O)(O)O [Compound 19]', 6.10),
  ('CCCCCCCCCC(O)(P(=O)(O)O)P(=O)(O)O [Compound 4]', 6.10),
  ('O=P(O)(O)C(O)(Cc1cccc(Br)c1)P(=O)(O)O [Compound 11]', 6.10);
